Values were extracted from ChEMBL document CHEMBL4689842.

# System: U2OS
# METHOD NOTES: Multiplex assay against U2OS
# Assay type: toxicity, cell-based
# MEASUREMENT CONTEXT: human, 24 h, 1 µM, compound concentration 1 uM, replicate 2
Note to self: values exactly at 8% are t. So Population Hoechst High Intensity Objects (%) at or above 8% is t, below is f.

COMPOUND	CATEGORY
O=C1NCN(c2ccccc2)C12CCN(CCCOc1ccc(F)cc1)CC2 [SPIRAMIDE]	f
COc1ncc(-c2ccc3nccc(-c4ccnnc4)c3c2)cc1NS(=O)(=O)c1ccc(F)cc1F	t
c1cn2cc(-c3ccc4cn[nH]c4c3)nc(Nc3ccc(N4CCOCC4)cc3)c2n1	f
Cc1nc(-c2cn3c(n2)-c2ccc(-c4cnn(C(C)(C)C(N)=O)c4)cc2OCC3)n(C(C)C)n1	f
C=CC(=O)Nc1cc2c(Nc3ccc(F)c(Cl)c3)ncnc2cc1OCCCN1CCOCC1.Cl.Cl [CANERTINIB DIHYDROCHLORIDE]	t
Cl.N#Cc1ccc2[nH]cc(CCCCN3CCN(c4ccc5oc(C(N)=O)cc5c4)CC3)c2c1 [VILAZODONE HYDROCHLORIDE]	f
Cc1c(-c2ccc(O)cc2)n(Cc2ccc(OCCN3CCCCCC3)cc2)c2ccc(O)cc12	f
CN(C)CC#Cc1ccc(OCCCc2sc(N3CCc4cccc(C(=O)Nc5nc6ccccc6s5)c4C3)nc2C(=O)O)c(F)c1	f
CN1CCC[C@@H]1CCO[C@](C)(c1ccccc1)c1ccc(Cl)cc1.O=C(O)/C=C/C(=O)O [CLEMASTINE FUMARATE]	f
Cc1nc(Nc2n[nH]c3c2CN(C(=O)N[C@H](CN(C)C)c2ccccc2)C3(C)C)c2sccc2n1	t
CN(C)C(=O)N[C@H]1CC[C@H](CCN2CCN(c3cccc(Cl)c3Cl)CC2)CC1.Cl [CARIPRAZINE HYDROCHLORIDE]	f
Cc1cc(C)cc(-c2cnc3cc(Cl)c(-c4cccc(O)c4)cc3c2OCCCN)c1	f
Cc1csc2c(N[C@@H](C)CN3CCN(S(=O)(=O)c4ccc(Cl)c(Cl)c4)CC3)ncnc12	f
CC[C@H](C)C(=O)O[C@H]1C[C@@H](C)C=C2C=C[C@H](C)[C@H](CC[C@@H]3C[C@@H](O)CC(=O)O3)[C@H]21	t
CC(C)(O)CNc1ncc(-c2ccnc(Nc3ccnc(Cl)c3)n2)c(CC2CC2)n1	f
C[C@@H](NCCCc1cccc(C(F)(F)F)c1)c1cccc2ccccc12.Cl [CINACALCET HYDROCHLORIDE]	f
Cc1nc(-c2ccc(-c3ccc(C(=O)N4CCc5cc6c(cc54)C4(CCN(C)CC4)CO6)cc3)c(C)c2)no1	t
C[C@@]1(C(=O)Nc2ccc(F)nc2)CCCN1c1nc(Nc2cc(C3CC3)n[nH]2)c2cccn2n1	t
CN1CCN(c2ccc(OC(F)(F)F)c(Nc3ncc4c(n3)-c3c(c(C(N)=O)nn3CCO)CC4)c2)CC1	f
Cn1cc(-c2[nH]c3cc(NC(=O)[C@H](N)C4CCCCC4)cc4c3c2C=NNC4=O)cn1	f
COc1cc(-n2cnc3cc(-c4ccc(Cl)cc4)sc3c2=O)ccc1OCCN1CCCC1	t
CCN(CC)CCCCNc1ncc2cc(-c3cc(OC)cc(OC)c3)c(NC(=O)NC(C)(C)C)nc2n1	t
CN(C)C(=O)/C(C#N)=C/c1ccc(-c2nc3cnc4[nH]ccc4c3n2C2CCCCC2)o1	f
CC(C)NCC(O)COc1ccc(CCOCC2CC2)cc1.Cl (stereo unspecified) [BETAXOLOL HYDROCHLORIDE]	f
CNc1nc(NCc2ccc(NS(C)(=O)=O)cc2Cl)cc(-c2ccccn2)n1	f
NC(=O)Nc1cc(-c2cccc(F)c2)sc1C(=O)N[C@H]1CCCNC1	t
